measurement_target: T1, mouse programmed cell death protein 1 Fc fusion protein (mPD-1-Fc), mPD-1 C60S (aa 25-167) (Mus musculus, UniProt Q02242, stabilised)
T1 construct: not cleaved; source: Expi293F, purified (Protein A, SEC; dimeric fraction); not shown: Fc (human), C-terminal, kept
method_description: SPR; Carterra LSA; Fab from the ammonium sulfate precipitate of the culture supernatant immobilised on a NiHC200M chip; hPD-1 (1-1024 nM) or mPD-1-Fc (4-1024 nM) as analyte, fourfold dilution series, no regeneration; HBS-EP pH 7.4, 25 °C; medians over the spots of a construct, KD = koff/kon
test_parameters: one partner purified
Form field: Kd (one value per entry).
Enter your answer as a number in nM; do not include the unit.

Entry under review: toripalimab Fab H.G57Y (Fab, V domains shown, heavy chain of Sm3 with this change; numbers count from the chain's first residue; as the light chain of Sm3; source: Brevibacillus, culture supernatant (ammonium sulfate precipitate); not shown: 6xHis, C-terminal, kept; 6xHN, C-terminal, kept) VH: QGQLVQSGAEVKKPGASVKVSCKASGYTFTDYEMHWVRQAPIHGLEWIGVIESETGYTAYNQKFKGRVTITADKSTSTAYMELSSLRSEDTAVYYCAREGITTVATTYYWYFDVWGQGTTVTVSS VL: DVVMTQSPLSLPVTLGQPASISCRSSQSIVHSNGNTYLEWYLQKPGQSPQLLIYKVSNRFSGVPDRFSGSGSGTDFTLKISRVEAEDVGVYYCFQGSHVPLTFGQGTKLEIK . Reported Kd?
90.3

Entry under review: toripalimab Fab L.P100G (Fab, V domains shown, as the heavy chain of Sm3; light chain of Sm3 with this change; numbers count from the chain's first residue; source: Brevibacillus, culture supernatant (ammonium sulfate precipitate); not shown: 6xHis, C-terminal, kept; 6xHN, C-terminal, kept) VH: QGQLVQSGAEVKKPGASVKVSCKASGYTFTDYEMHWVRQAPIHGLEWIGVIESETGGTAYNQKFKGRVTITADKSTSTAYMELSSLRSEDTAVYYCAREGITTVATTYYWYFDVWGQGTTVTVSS VL: DVVMTQSPLSLPVTLGQPASISCRSSQSIVHSNGNTYLEWYLQKPGQSPQLLIYKVSNRFSGVPDRFSGSGSGTDFTLKISRVEAEDVGVYYCFQGSHVGLTFGQGTKLEIK . Reported Kd?
22.8

Further cases:
Entry under review: toripalimab Fab L.V99M (Fab, V domains shown, as the heavy chain of Sm3; light chain of Sm3 with this change; numbers count from the chain's first residue; source: Brevibacillus, culture supernatant (ammonium sulfate precipitate); not shown: 6xHis, C-terminal, kept; 6xHN, C-terminal, kept) VH: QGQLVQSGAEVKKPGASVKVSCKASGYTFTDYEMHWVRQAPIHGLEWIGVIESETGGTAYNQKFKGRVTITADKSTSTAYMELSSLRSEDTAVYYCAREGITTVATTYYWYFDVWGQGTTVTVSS VL: DVVMTQSPLSLPVTLGQPASISCRSSQSIVHSNGNTYLEWYLQKPGQSPQLLIYKVSNRFSGVPDRFSGSGSGTDFTLKISRVEAEDVGVYYCFQGSHMPLTFGQGTKLEIK . Reported Kd?
590
